System: glycogen synthase kinase-3 (GSK3A per assay name; protocol says GSK3B)
assay.details: GSK3 binders on small-molecule microarrays, primary screen, biochemical, small-molecule microarray, 635 nm fluorescence, GSK3A (AID 1103); also: the record names both GSK3A and GSK3B
applied.conditions: small-molecule microarray binding, fluorescence 635 nm; higher = more signal
endpoint.name: composite z-score

Input: What measured composite z-score goes with Cc1cc2c(nc1C)CCCN2CC(C)ON=C[C@@H](C)[C@H](OCc1ccccc1)C(C)C (some centres not stated) ?
Output: -0.857

Input: Same thing, different compound: O=C1[C@H]2[C@H]3[C@H](O)[C@H](O)CC(=NOCc4ccccc4)[C@H]3CC[C@H]2C(=O)N1Cc1ccccc1
Output: -0.601

Input: Same thing, different compound: Cc1ccc(S(=O)(=O)N[C@H]2COC(=O)[C@@H](C)COC(=O)[C@H](C)NC(=O)CC=C[C@H]2C)cc1
Output: 0.393

Input: Same thing, different compound: CCOC(=O)CCN1C(=O)[C@H]2[C@H]3[C@H](O)[C@H](O)CC(=NNC(=O)OCC)[C@@H]3CC[C@H]2C1=O
Output: 0.0666

Input: Same thing, different compound: CCCNC(=O)OC[C@H]1O[C@H](CCON=C(C)CCC(=O)OC[C@H]2O[C@H](C#Cc3ccccc3)C=C[C@@H]2Oc2ccc(C)cc2)C=C[C@@H]1Oc1ccc(OC)cc1
Output: -0.952

More entries:
Input: What measured composite z-score goes with C=C(C)C(=O)OC[C@@H]1CN2[C@@H](CC[C@@H](C)[C@@H]2c2ccc(Br)cc2)C(=O)O1 ?
Output: 0.399

Input: Same thing, different compound: CCOC(=O)NN=C1C[C@@H](O)[C@@H](O)[C@@H]2[C@@H]3C(=O)N(Cc4ccc5c(c4)OCO5)C(=O)[C@@H]3CC[C@@H]12
Output: 0.424

====

assay.details: E. coli acrAB mutant growth effects, primary screen, E. coli filamentation inducers, strain DRC39, OD650, 24 h (AID 1178);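 also: growth measured as culture turbidity by optical density at 650 nm; test concentration not given here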
applied.conditions: higher = more signal, called active from +8 up or from −8 down
Assign classes using reported z-score values and the ranges small value = under -0.09, mid value = from -0.09 up to 0.5, large value = 0.5 and over, please.

Here's what some known entries look like.
Input: Which class is correct for the following compound? CCCNC(=O)OC[C@H]1O[C@H](CCON=C(C)CCN2CCc3nc(-c4ccccc4)c(-c4ccccc4)cc3C2)C=C[C@@H]1Oc1ccc(OC)cc1
Output: mid value

Input: Same thing, different compound: CCN1C(=O)[C@H]2[C@H]3[C@H](O)[C@H](O)CC(=NNC(=O)OCc4ccc(OC)cc4)[C@H]3CC[C@H]2C1=O
Output: mid value

More entries:
Input: Which class is correct for the following compound? CCOC(=O)CCN1C(=O)[C@H]2[C@H]3[C@H](O)[C@H](O)CC(=NNC(=O)OCC)[C@@H]3CC[C@H]2C1=O
Output: mid value

Input: Same thing, different compound: C[C@@H](ON=C1[C@H]2CCn3c(=O)n(-c4ccccc4)c(=O)n3[C@H]2[C@H](O)[C@@H]2O[C@H]12)c1cn([C@H](CO)Cc2ccccc2)nn1
Output: large value

Input: Same thing, different compound: Cc1ccc(S(=O)(=O)N[C@H]2COC(=O)[C@@H](C)COC(=O)[C@H](C)NC(=O)CC=C[C@H]2C)cc1
Output: mid value

Input: Same thing, different compound: CCOC(=O)[C@H](Cc1ccccc1)NC(=O)CCC1CC(OC(=O)NCc2cccc3ccccc23)CC2(CCCC(COC(=O)NCCCN3CCCC3=O)O2)O1 (stereo not given in full)
Output: small value

Input: Same thing, different compound: COc1ccc(COC(=O)NN=C2C[C@@H](O)[C@@H](O)[C@@H]3[C@@H]4C(=O)N(C(C)(C)C)C(=O)[C@@H]4CC[C@H]23)cc1
Output: small value

Input: Same thing, different compound: COC(=O)[C@H](C)NC(=O)CCC1CC(OC(=O)NCCc2ccc(F)cc2)CC2(CCCC(COC(=O)NCCCN3CCCC3=O)O2)O1 (stereo not given in full)
Output: small value

Input: Same thing, different compound: CCOC(=O)NN=C1C[C@@H](O)[C@@H](O)[C@@H]2[C@@H]3C(=O)N(Cc4ccccc4)C(=O)[C@@H]3CC[C@@H]12
Output: mid value

Input: Same thing, different compound: CC(C)=CCCC(C)=CCON=C1C[C@@H](O)[C@@H](O)[C@@H]2[C@@H]3C(=O)N([C@@H](C)c4ccccc4)C(=O)[C@@H]3CC[C@H]12
Output: small value
